- Test system: cancer cell lines
- assay.info: Correlation of gene expression with PRISM compound sensitivity across cell lines (gene:compound correlate pairs)
- Assay type: cell-based
For each record, write down the corresponding compound gene train corr.

input: Indicate the recorded compound gene train corr value for this molecule: Cc1occc(=O)c1[O-].Cc1occc(=O)c1[O-].[O]=[V+2]
output: −0.1081

input: Indicate the recorded compound gene train corr value for this molecule: COc1cc2c(NC3CCN(C(C)C)CC3)nc(N3CCC(F)(F)CC3)nc2cc1OCCCN1CCCC1
output: −0.1787

input: Indicate the recorded compound gene train corr value for this molecule: Cc1cc(CN2CCN(c3c(Br)cnc4nc(-c5ccc(N6CCN(C)CC6)cc5)[nH]c34)CC2)no1
output: −0.1607

input: Indicate the recorded compound gene train corr value for this molecule: CCOC(=O)c1ncc2[nH]c3ccc(OCc4ccccc4)cc3c2c1COC.Cl
output: −0.1712

These data points were gathered from patent US20250140406A1.
